Source listed as ChEMBL document CHEMBL5724562.

- Test system: B cell
- protocol-description: Cytotoxicity screening of chemical probes in isolated B cell assay. Data is normalized to DMSO control, the cell viability average of replicates are reported. Reduction of ATP level more than 20% indicate compromised cell health status.
- test-conditions: human, 1 µM
attribute-measured: Cell Viability
Record the result as number plus unit.

Find the measured Cell Viability of `CCc1ccccc1C(=O)Nc1n[nH]c2c(C)c(F)c(C3C(C#N)=C(C)N(C)C(C)=C3C#N)cc12` and report it.
97.1659%

Find the measured Cell Viability of `O=C(NCCN1CCOCC1)c1ccc2c(c1)C(=O)c1ccc(Nc3ccc(F)c(NC(=O)c4ccccc4)c3)cc1CC2` and report it.
91.9931%

Find the measured Cell Viability of `COc1cc2c(cc1OCCCN1CCCC1)N=C(N)C21CCC1` and report it.
98.8274%

Find the measured Cell Viability of `CN(C)CCCOc1ccc(-c2cc(NCCCn3cccn3)nc(S(C)(=O)=O)n2)cc1` and report it.
98.5143%

Find the measured Cell Viability of `Cc1cn(-c2cc(NC(=O)c3ccc4c(c3)CN(c3cncnc3)C[C@@H]4C)cc(C(F)(F)F)c2)cn1` and report it.
96.9111%

Find the measured Cell Viability of `O=C(NC[C@H](O)CN1CCc2ccccc2C1)c1ccnc(NC2CCC2)c1` and report it.
91.5741%

Find the measured Cell Viability of `Cc1ccc(/C(=C\CN2CCCC2)c2ccccn2)cc1` and report it.
98.8273%

Find the measured Cell Viability of `N#CC1(c2ccccn2)CCN(Cc2cc(C(=O)O)c(=O)n3ccccc23)CC1` and report it.
98.7103%

Find the measured Cell Viability of `Cc1nc(N2CC[C@H](O)C2)ncc1-c1cc(C(F)(F)F)cc2[nH]ncc12` and report it.
99.9461%

Find the measured Cell Viability of O=S(=O)(c1ccccc1)c1cnc2c(N3CCNCC3)cccc2c1 [INTEPIRDINE] and report it.
101.733%

Find the measured Cell Viability of `Cc1cc(C)cc([C@@H]2c3cc(C)ccc3NC(=O)CN2C(=O)c2ccc(Br)s2)c1` and report it.
95.4438%

Find the measured Cell Viability of `Cn1cc(CCn2cnc(-c3cnn(C)c3)c2-c2ccc(C#N)cc2)cn1` and report it.
99.8514%

Find the measured Cell Viability of `CN(C)C(=O)/C(C#N)=C/c1ccc(-c2nc3cnc4[nH]ccc4c3n2C2CCCCC2)o1` and report it.
89.3026%

Find the measured Cell Viability of `Nc1ncnc2c1ccn2[C@@H]1O[C@H]([C@H](O)c2ccccc2)[C@@H](O)[C@H]1O` and report it.
101.429%

Find the measured Cell Viability of `Cc1cc(Cn2cnc3c2C[C@@H](C(=O)O)N(C(=O)C(c2ccccc2)c2ccccc2)C3)ccc1N(C)C` and report it.
100.94%

Find the measured Cell Viability of `Cl.Cl.Cl.c1ccc(N2CCN(Cc3nc4ccccc4[nH]3)CC2)nc1` and report it.
98.1024%

Find the measured Cell Viability of `C[C@@H](c1cccc(CN)c1)n1cc(Cl)cc(C(N)=O)c1=N.Cl` and report it.
100.561%

Find the measured Cell Viability of `Cc1nc[nH]c1CCN.Cl` and report it.
99.4273%

Find the measured Cell Viability of `CC1=C(C#N)C(c2ccc3[nH]nc(C)c3c2)C(C#N)=C(C)N1` and report it.
96.499%
